# assayed target: Adrenergic β2 (Homo sapiens)
# Construct: Adherent H292 cells were removed from tissue culture flasks; endogenous in cells; host or cells: H292 cells
# Sequence (P07550 whole entry): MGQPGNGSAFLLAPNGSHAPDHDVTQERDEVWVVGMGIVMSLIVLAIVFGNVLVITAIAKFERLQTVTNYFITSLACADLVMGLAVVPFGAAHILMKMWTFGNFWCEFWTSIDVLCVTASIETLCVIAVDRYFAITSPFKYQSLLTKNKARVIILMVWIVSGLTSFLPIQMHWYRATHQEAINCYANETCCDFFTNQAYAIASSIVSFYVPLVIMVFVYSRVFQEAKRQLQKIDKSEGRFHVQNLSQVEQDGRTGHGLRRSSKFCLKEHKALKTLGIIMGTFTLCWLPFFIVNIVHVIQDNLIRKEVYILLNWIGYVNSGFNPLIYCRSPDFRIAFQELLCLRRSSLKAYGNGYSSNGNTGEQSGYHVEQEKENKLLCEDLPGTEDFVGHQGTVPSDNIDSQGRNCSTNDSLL
# assay comment: Adrenergic β2 mediated cAMP production in H292 cells
# Type: cell-based
# particulars: Intrinsic Activity as a fraction relative to the maximum activity determined for formoterol
Structures can show the parent of a compound that is named as a salt.

molecule | assayed target | β2 Int Act
O=C(CCNCCc1ccc2c(c1)OCCO2)N(CCNCCc1ccc(O)c2[nH]c(=O)sc12)C1CCCCCC1 [Example 88, bis-trifluoroacetic acid salt] | Adrenergic β2 (Homo sapiens) | 0.37
NS(=O)(=O)c1ccc(CCNCCC(=O)N(CCNCCc2ccc(O)c3[nH]c(=O)sc23)C2CCCCC2)cc1 [Example 69, bis-trifluoroacetic acid salt] | Adrenergic β2 (Homo sapiens) | 0.82
O=C(CCNC[C@H](O)c1ccccc1)N(CCNCCc1ccc(O)c2[nH]c(=O)sc12)C1CCCCC1 [Example 75, bis-trifluoroacetic acid salt] | Adrenergic β2 (Homo sapiens) | 0.91
